These data points were gathered from patent US6060471A.

Quick list: Hair Mass, Treated per entry.
test system: flank organs of Golden Syrian hamsters (hair growth); test: Golden Syrian hamster assay (flank organ hair mass); assay type: in vivo; settings: Table I; dose 10%, topical, 13 applications; pH per compound 6.0-8.5

Provide only the value of recorded Hair Mass, Treated for NCCCCN(CCCN)Cc1ccccc1 1.05 ± .12 mq

Assign Hair Mass, Treated to the following record: NCCCCCCCCN 0.70 ± .12 mq

Provide Hair Mass, Treated value for the following compound: NCCCCCCCN 0.80 ± .11 mq

Report measured Hair Mass, Treated; entry is NCCCCCCN 1.50 ± .20 mq

In one line, give reported Hair Mass, Treated of the entry NCCCCCN . 1.91 ± .15 mq

Report Hair Mass, Treated, nothing else, for this compound: NCCCCCCCCCN 1.27 ± .56 mq
